tested on: human embryonic stem cell derived neural stem cells (NSCs); assay: Neural Stem Cell Proliferation Assay (neurogenesis assay, ATP levels by CellTiterGlo); format: cell-based; details: 96 h, compound concentration at which 150% activity of control (100%) is reached, NSC proliferation by ATP level after 4 days incubation, dose response 8 μM to 8 nM
Overview of reported log10 of EC (150% of control) across a group of compounds:
Scale: log10; quantity: EC (150% of control); unit before log: µM

COc1ccc(-c2cc(F)cc3cc4n(c23)CCNC4=O)cc1	-2.15

Give log10 of EC (150% of control) for N#Cc1cc(-c2ccnc(F)c2)c2c(c1)cc1n2CCNC1=O
-0.17

Item Cc1c2n(c3c(-c4ccccc4)cc(C#N)cc13)CCCNC2=O : provide log10 of EC (150% of control)
-1.02

Query log10 of EC (150% of control) for Cc1c2n(c3c(-c4ccc(F)c(F)c4F)cc(C#N)cc13)CCNC2=O
-1.08

Identify measured log10 of EC (150% of control) corresponding to COc1ccc(-c2cc(F)cc3c(C)c4n(c23)CCNC4=O)cc1
-2.30

Identify the reported log10 of EC (150% of control) for the following entry. Cc1c2n(c3c(-c4ccc(Cl)cc4)cc(Cl)cc13)CCNC2=O
-1.72

Given the compound Cc1c2n(c3c(-c4ccccc4)cc(F)cc13)CCNC2=O , write its reported log10 of EC (150% of control).
-1.01

For the compound Cc1c2n(c3c(-c4ccc5c(c4)OCO5)cc(F)cc13)CCNC2=O , give its measured log10 of EC (150% of control) value.
-1.51

Measured values drawn from patent US9284321B2 for this set.
